test.protocol: NCI Yeast Anticancer Drug Screen. Data for the rad50 strain (AID 155);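 further: 0% = growth of vehicle-only cultures of the same strain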
experimental.context: S. cerevisiae rad50 strain growth inhibition; at 50.0 µM (retest, dose inferred, filed as 5.0); active compounds read high
This is part of a sample that, as a whole, favours compounds with a hit. Of some 79,000 tested, about 15% had one in any assay.
Task for the reader: assign each of the following compounds its reported growth inhibition.
Only the number, expressed in %, is required.

Query :: Query (compound): "C(=NCCc1ccccc1)c1ccccc1B1OB(c2ccccc2C=NCCc2ccccc2)OB(c2ccccc2C=NCCc2ccccc2)O1" ; field requested: growth inhibition
Result :: 99

Query :: // growth inhibition lookup, key: "O=[N+]([O-])c1ccc2c(c1)[nH]c1ccccc12"
Result :: 36

Query :: Requested read-out: growth inhibition. Entry: CCC(O)C(O)(c1ccccc1)c1nc2ccccc2s1 (stereo unspecified)
Result :: 15

Query :: growth inhibition lookup needed for OC1(c2ccccc2)CCC2CCCCC2C1 (stereo unspecified) , thanks.
Result :: 32

Query :: What value of growth inhibition has been recorded for this entry: O=C(COc1ccc(Br)cc1Br)N1N=C(c2ccc([N+](=O)[O-])o2)CC1(O)c1ccccc1 (stereo unspecified)
Result :: 23

Query :: Need growth inhibition, item "CCN(CC)Cc1cc(Nc2c3ccccc3nc3c4ccccc4n(C)c23)ccc1O"
Result :: 23

Query :: Tell me the measured growth inhibition of CN(C)C1CCC2C(=C1OC(=O)c1ccccc1)C=Cc1ccccc12 (stereo unspecified) , please.
Result :: 11

Query :: If you can, please state the reported growth inhibition value of "c1cnc2c(Oc3nc(Oc4cccc5cccnc45)nc(Oc4cccc5cccnc45)n3)cccc2c1" .
Result :: 91

Query :: What value of growth inhibition has been recorded for this entry: "CCCCCCCCCCCCCCCCCC[n+]1cccc(C(=O)c2ccccc2)c1"
Result :: 99

Query :: Returns the measured growth inhibition for the input compound. Input: "CN1C(=O)c2cccc3c([N+](=O)[O-])ccc(c23)C1=O"
Result :: 55

Query :: Would you kindly share the measured growth inhibition for "N#CCc1nc(Cl)cc(Cl)n1" ?
Result :: 29

Query :: # get_value(readout='growth inhibition', item= "N#Cc1cccc2c1Sc1ccccc1N2" )
Result :: 31

Query :: What value of growth inhibition has been reported for the following compound? CC(=O)C(C(=O)CCSCCO)C(SCCO)c1ccc(Cl)c(Cl)c1 (stereo unspecified)
Result :: 64

Query :: Param item = O=C1CCC(Cc2ccccc2Br)C(=O)N1 (stereo unspecified) ; retrieve measured growth inhibition.
Result :: 10

Query :: // lookup growth inhibition for "Cc1[nH]nc(C(=O)OC(C)C)c1N=NN(C)C"
Result :: 94

Query :: // lookup growth inhibition for "O=C(CC(=O)c1ccncc1)c1ccccc1"
Result :: 96

Query :: Look up growth inhibition: "CCC(=O)OC1=C(Cl)C(=O)c2ccccc2C1=O"
Result :: 98

Query :: // lookup growth inhibition for "CC1=CC(=N/O)/C=CC/1=C(\C#N)c1ccccc1"
Result :: 99

Query :: Item under review: O=C(O)C1CCc2ccc3ccccc3c2C1c1cccc2ccccc12 (stereo unspecified) . Reported growth inhibition?
Result :: 98

Query :: Give the measured growth inhibition of "CN(C(=O)c1ccccc1)C1(COC(=O)c2ccccc2)CCCCC1" .
Result :: 3

Query :: Entry "COc1ccc(N=Nc2ccc3oc(=O)c(C(=O)Nc4ccc(Cl)cc4)cc3c2)cc1" : reported growth inhibition = ?
Result :: 98

Query :: Consider the compound shown here: "N=C(N)c1cccc(-c2ccc(-c3ccccc3)o2)c1" What is its recorded growth inhibition?
Result :: 62

Query :: Report growth inhibition for "O=c1cc(/C=C/c2ccccc2)cccc1O" please.
Result :: 97

Query :: Query: growth inhibition; subject: "Nc1ccc2[nH]c3ccccc3c2c1"
Result :: 6

Query :: Need growth inhibition, item "CN(Cc1cc(Br)cc(Br)c1O)Cc1c[nH]c2ccccc12"
Result :: 8

Query :: I have this compound here, "CCN(CC)Cc1cc(Nc2c3ccccc3nc3c2[nH]c2ccccc23)ccc1O" , and I need its recorded growth inhibition.
Result :: 18

Query :: So what does the record say about growth inhibition for "O=[N+]([O-])c1ccc(-c2ccccc2Cl)c([N+](=O)[O-])c1" ?
Result :: 95

Query :: Tell me the measured growth inhibition of "C[Si](C)(C)C1=C([Si](C)(C)C)C(Cl)(Cl)C1=O" , please.
Result :: 32

Query :: Which growth inhibition value is on record for "ON=C1Cc2ccccc2-c2ccccc2C1" ?
Result :: 1

Query :: Name the recorded growth inhibition for CN(Cc1ccccc1)CC(O)c1ccc(/C=C/c2ccc(Cl)cc2)cc1 (stereo unspecified) .
Result :: 66

Query :: Form field: reported growth inhibition of "CCOC(=O)CCCCCN"
Result :: 8

Query :: Could you tell me which growth inhibition is on file for COc1cccc(C2c3cc4c(cc3OC(N3CCOCC3)C2C)OCO4)c1 (stereo unspecified) ?
Result :: 16

Query :: Look up growth inhibition for this compound: "CCCCCCCCCCCC(=O)OCCCCC"
Result :: 0

Query :: Query (compound): N#CC(CC(=O)O)C(c1cccc2ccccc12)c1cccc2ccccc12 (stereo unspecified) ; field requested: growth inhibition
Result :: 99

Query :: Look at this compound and give its reported growth inhibition. "CCOC(=O)/C=C\c1c(Cl)n(-c2ccccc2)c(=O)n(-c2ccccc2)c1=O"
Result :: 98

Query :: State the recorded growth inhibition for this entry: "O=C1Oc2ccccc2C(=O)/C1=C/N1C(=O)/C(=C/c2ccc([N+](=O)[O-])cc2)SC1=S"
Result :: 68

Query :: Data request, read-out growth inhibition, for "Oc1cc(O)cc(O)c1"
Result :: 76

Query :: # query: growth inhibition of entry "NSc1ccccn1"
Result :: 74

Query :: Give the measured growth inhibition of CC(=O)OC1COC(N2C(=O)C(=O)c3cc(Br)ccc32)C(OC(C)=O)C1OC(C)=O (stereo unspecified) .
Result :: 20

Query :: Report growth inhibition for "O=S(=O)(CCCl)Cc1ccccc1" please.
Result :: -144

Query :: Item under review: "CCC(N)(CO)CO" . Reported growth inhibition?
Result :: 67
